From: patent US6211170A

# experiment: Cytotoxicity, tetrazolium salt (MTT) metabolic assay
# Type: cell-based
# condition-set: cytotoxic effects, read-out: TC50 (the source's name)
# CC50 values compiled below

The examples below pair each entry with its known result.
| structure | reported |
| --- | --- |
| CN(Cc1ccc(C(F)(F)F)cc1)C(=O)N1C(=O)C[C@@H]1CSc1nccn1C | > 250 µM |
| CN(Cc1ccc2c(c1)OCO2)C(=O)N1C(=O)C[C@@H]1CSc1ncccn1 | > 249 µM |
| CN(Cc1ccc(F)cc1)C(=O)N1C(=O)C[C@@H]1CSc1ncccn1 | > 250 µM |
| CN(Cc1ccc(C(F)(F)F)cc1)C(=O)N1C(=O)C[C@@H]1CSc1nnnn1C | > 250 µM |
| COC(=O)c1ccc(CN(C)C(=O)N2C(=O)C[C@@H]2CSc2nccc(C)n2)cc1 | > 250 µM |

input: Please give the measured CC50 for this molecule: CC[C@@H](NC(=O)N1C(=O)C[C@@H]1COC(C)=O)c1ccccc1
output: > 250 µM

input: Okay, and CC[C@@H](NC(=O)N1C(=O)[C@@H](C)[C@@H]1CSc1nc2ncccc2s1)c1ccccc1 ?
output: > 250 µM
